Molecular target: human cloned 5-HT6 receptors (Homo sapiens, UniProt P50406)
Construct: expressed in transfected cells; host or cells: HeLa cells
Sequence (P50406 whole entry): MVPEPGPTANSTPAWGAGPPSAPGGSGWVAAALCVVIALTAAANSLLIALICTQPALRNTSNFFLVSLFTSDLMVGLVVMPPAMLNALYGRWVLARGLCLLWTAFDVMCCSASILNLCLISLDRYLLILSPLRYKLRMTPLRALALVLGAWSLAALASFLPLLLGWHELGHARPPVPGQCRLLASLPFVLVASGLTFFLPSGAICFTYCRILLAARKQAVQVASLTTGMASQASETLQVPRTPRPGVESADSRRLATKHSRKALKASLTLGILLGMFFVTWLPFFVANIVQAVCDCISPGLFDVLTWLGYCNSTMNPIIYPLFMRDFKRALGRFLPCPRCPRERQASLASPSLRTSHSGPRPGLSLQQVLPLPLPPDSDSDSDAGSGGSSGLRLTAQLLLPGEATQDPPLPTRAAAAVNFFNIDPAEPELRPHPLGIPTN
Experiment: 5-HT6 binding affinity ([3H]-LSD displacement, membranes of Hela cells)
Conditions: [3H]-LSD 3.0 nM, Hela cell membranes expressing human cloned 5-HT6 receptors, 120 min at room temperature; read-out: 5-HT6 Binding Ki
Quantity name: Ki
Dear colleague, please send the value followed by its unit.

COc1ccc2c(c1)c(S(=O)(=O)c1cccc(F)c1)cn2C1CCCNC1 (stereo not drawn); 11 nM
COc1ccc2c(c1)c(S(=O)(=O)c1cccc(F)c1)cn2C1CCCN(C)C1 (stereo not drawn); 68 nM

Consider the additional molecule presented here.
Q: May I ask what Ki has been recorded for O=S(=O)(c1cccc(Cl)c1)c1cn(C2CCCNC2)c2ccccc12 (stereo not drawn) ?
A: 5 nM
